# SYSTEM_NAME: Retinoic acid receptor RXR-alpha (Homo sapiens, UniProt P19793)
# Sequence (P19793 whole entry): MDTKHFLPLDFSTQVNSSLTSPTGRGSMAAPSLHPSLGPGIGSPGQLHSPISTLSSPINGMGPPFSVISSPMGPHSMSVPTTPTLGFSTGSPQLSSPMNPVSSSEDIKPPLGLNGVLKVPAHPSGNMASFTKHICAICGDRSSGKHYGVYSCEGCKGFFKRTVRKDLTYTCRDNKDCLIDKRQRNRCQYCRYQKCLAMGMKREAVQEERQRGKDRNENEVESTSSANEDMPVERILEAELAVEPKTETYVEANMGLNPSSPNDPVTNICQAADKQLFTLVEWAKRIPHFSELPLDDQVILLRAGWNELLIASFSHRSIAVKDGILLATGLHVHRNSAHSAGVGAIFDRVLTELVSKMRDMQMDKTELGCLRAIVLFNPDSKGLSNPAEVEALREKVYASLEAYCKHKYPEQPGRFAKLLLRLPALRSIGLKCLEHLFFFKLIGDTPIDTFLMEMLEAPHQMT
ASSAY_METRIC: EC50 (µM)

Some molecules with recorded EC50:
| MOLECULE | RESULT_UNIT | EC50 |
| --- | --- | --- |
| CN(c1cc(Cl)cc(Cl)c1)c1cc(Cl)nc(OCCC(=O)O)n1 | µM | 0.26 |
| CC1(C)CCN(c2cc(Cl)nc(OCCC(=O)O)n2)c2ccccc21 | µM | 0.009 |
| CC1Cc2ccccc2N(c2cc(Cl)nc(OCCC(=O)O)n2)C1 (centres undefined) | µM | 0.029 |
| O=C(O)CCOc1nc(Cl)cc(N2CCCc3ccc(Cl)cc32)n1 | µM | 0.019 |
| CN(c1cc(Cl)nc(OCCC(=O)O)n1)c1cccc(Cl)c1Cl | µM | 3.2 |

1 = CC1CCN(c2cc(Cl)nc(OCCC(=O)O)n2)c2ccccc21 (centres undefined)
2 = CN(c1ccccc1)c1cc(Cl)nc(OCCC(=O)O)n1
Select the item whose EC50 value is smaller, choosing between 1 and 2 . When you have decided, please share the label of that item.
1
(1: 0.007 µM, 2: 4.2 µM)

I = Cc1ccc2c(c1)N(c1cc(Cl)nc(OCCC(=O)O)n1)CCC2C (centres undefined)
II = CN(c1cc(C(F)(F)F)cc(C(F)(F)F)c1)c1cc(Cl)nc(OCCC(=O)O)n1
Select the item whose EC50 value is smaller, choosing between I and II . When you have decided, please share the label of that item.
I

1 = Cc1ccc2c(c1)N(c1cc(Cl)nc(OCCC(=O)O)n1)CCC2
2 = Cc1cccc2c1CCCN2c1cc(Cl)nc(OCCC(=O)O)n1
Select the item whose EC50 value is smaller, choosing between 1 and 2 . When you have decided, please share the label of that item.
1
(1: 0.038 µM, 2: 0.09 µM)
